EC50 values by entry
target: T1, mouse GPC3 on stably transfected SK-HEP-1 cells (mouse, UniProt Q8CFZ4 25-553); experiment: MSD-based (ECL) cell binding assay on transfected SK-HEP-1 cells
T1 construct: whole, on cells; also called SK-HEP-1::mouse GPC3; murine GPC3
T1 sequence (Q8CFZ4 25-553 limits assumed): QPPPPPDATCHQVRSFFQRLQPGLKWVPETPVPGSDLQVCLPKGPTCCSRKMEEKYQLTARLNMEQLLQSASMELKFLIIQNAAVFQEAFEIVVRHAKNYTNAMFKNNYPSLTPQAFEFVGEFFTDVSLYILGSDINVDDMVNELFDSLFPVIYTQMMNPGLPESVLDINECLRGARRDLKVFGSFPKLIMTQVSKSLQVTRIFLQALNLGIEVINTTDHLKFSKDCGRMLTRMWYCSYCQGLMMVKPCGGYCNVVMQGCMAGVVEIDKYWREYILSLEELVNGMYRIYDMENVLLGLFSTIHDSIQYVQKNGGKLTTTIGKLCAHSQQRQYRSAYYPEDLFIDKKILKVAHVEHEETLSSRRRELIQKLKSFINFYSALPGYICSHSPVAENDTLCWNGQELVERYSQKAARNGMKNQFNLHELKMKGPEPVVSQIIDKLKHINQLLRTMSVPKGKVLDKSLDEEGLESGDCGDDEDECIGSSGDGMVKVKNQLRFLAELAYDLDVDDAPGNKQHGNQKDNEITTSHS
propertyMeasured: EC50 (nM)

{"binder": "lipocalin mutein of SEQ ID NO: 10 (designed binder, hNGAL (Lcn2) mutein; also called optimized GPC3 specific lipocalin mutein) QDSTSDLIPAPPLSKVPLQQNFQDNQFQGKWYVVGRAGNGALREDKDPPKMWATIYELKEDKSYDVTNVRFARKKCVYSIGTFVPGSQPGEFTLGPIKSEPGNTASLVRVVSTNYNQHAMVFFKEVYQNREIFFIILYGRTKELTSELKENFIRFSKSLGLPENHIVFPVPIDQCIDGSAWSHPQFEK", "unitAbbreviation": "nM", "val": 3.8}
{"binder": "lipocalin mutein of SEQ ID NO: 4 (designed binder, hNGAL (Lcn2) mutein; also called non-optimized GPC3-specific Lcn2 mutein; mother clone) QDSTSDLIPAPPLSKVPLQQNFQDNQFHGKWYVVGRAGNVALREDKDPPKMRATIYELKEDKSYNVTNVRFAMKKCMYSIGTFVPGSQPGEFTLGQIKSEPGNTSNLVRVVSTNYNQHAMVFFKEVYQNREIFFITLYGRTKELTSELKENFIRFSKSLGLPENHIVFPVPIDQCIDGSAWSHPQFEK", "unitAbbreviation": "nM", "val": 7.1}

Sourced from patent US20180141988A1
